Test system: DIV30
ASSAY NAME: qHTS profiling for inhibitors of Plasmodium falciparum proliferation (AID 504749); also: nearly all actives have a fitted effect of over 60% in size
RECORDED CONDITIONS: P. falciparum in erythrocytes, SYBR Green DNA, 72 h; series mostly up to 28.7 µM
Records with an inconclusive call do not appear. Active and inactive are the calls of the source. Calls follow the shape of the dose curve; as a rule, active = well fitted inhibition curve with a large enough effect; inconclusive = small, poorly fitted or top-dose-only effect; inactive = flat fitted curve, though single readings scatter.
Outcome field: choose from true (1) for active, false (0) for inactive

Task: Hi, sorry to bother you, what did the test record for O=C(c1ccc(F)cc1)C1CCN(CCn2c(=O)[nH]c3ccccc3c2=O)CC1 ?
Result: false (0)

Task: Lookup CCC1(c2ccccc2)C(=O)NCNC1=O
Result: false (0)

Task: Moving on to the next compound: CCOC(=O)Nc1ccc(NCc2ccc(F)cc2)nc1N
Result: true (1)

Task: Now consider Nc1nc2c(ncn2COC(CO)CO)c(=O)[nH]1 .
Result: false (0)

Task: Now consider CN1C(C(=O)Nc2ccccn2)=C(O)c2ccccc2S1(=O)=O and answer again.
Result: false (0)

Task: Lookup NC(=O)NO
Result: false (0)

Task: Item: CN(Cc1cnc2nc(N)nc(N)c2n1)c1ccc(C(=O)N[C@@H](CCC(=O)O)C(=O)O)cc1
Result: false (0)

Task: Cc1cn([C@H]2C=C[C@@H](CO)O2)c(=O)[nH]c1=O , same question.
Result: false (0)

Task: Let us now turn to COc1cc2c(c(OC)c1OC)-c1ccc(OC)c(=O)cc1[C@@H](NC(C)=O)CC2
Result: false (0)

Task: Continue with CCCNCC(O)COc1ccccc1C(=O)CCc1ccccc1 (stereo unspecified)
Result: true (1)

Task: Can you handle CC(C)(C)C(=O)Oc1ccc(S(=O)(=O)Nc2ccccc2C(=O)NCC(=O)O)cc1 next?
Result: false (0)

* * *

ASSAY NAME: Quantitative High-Throughput drug screen in 47 multiple myeloma cell lines against the NCATS MIPE library collection: KMS11_JCRBsus cell viability assay (AID 1919873); also: nearly all actives have a fitted effect of over 50% in size
RECORDED CONDITIONS: KMS11 myeloma viability, CellTiter-Glo ATP luminescence, 48 h; series mostly up to 45.8 µM
Records with an inconclusive call do not appear. Active and inactive are the calls of the source. The call rests on the fitted dose curve; in most records, active means well fitted cell-killing curve with a large enough effect; inconclusive means small, poorly fitted or top-dose-only effect, or effect the other way; inactive means no such curve, though single readings can be large or run the other way.
Reply using exactly one outcome from active, inactive

Task: Fill in: this test's call for Clc1ccc(C(c2ccccc2Cl)C(Cl)Cl)cc1 (stereo not given) is ___
Result: active

Task: Continue with CCc1cccc2c3c([nH]c12)C(CC)(CC(=O)O)OCC3 (stereo not given)
Result: inactive

Task: // query: CNCCCC12CCC(c3ccccc31)c1ccccc12
Result: active

Task: Further, for Nc1ccn([C@H]2CC[C@@H](CO)O2)c(=O)n1 ?
Result: inactive

Task: # iterate: CCC1(C)CC(=O)NC1=O (stereo not given)
Result: inactive

Task: Would you kindly repeat that for Nc1c2c(nc3ccccc13)CCCC2 ?
Result: inactive

Task: Same thing, different molecule: CC[C@@]1(O)C(=O)OCc2c1cc1n(c2=O)Cc2cc3c(CN(C)C)c(O)ccc3nc2-1
Result: active

Task: What about this molecule? NC12CC3CC(CC(C3)C1)C2
Result: active

Task: Do the same for O=C(C1CCCCC1)N1CC(=O)N2CCc3ccccc3C2C1 (stereo not given) please
Result: inactive

Task: What do you get for Cc1cc(C(C)(C)C)cc(C)c1CC1=NCCN1 ?
Result: inactive

Task: Proceed to N[C@@H](Cc1c[nH]c2ccc(O)cc12)C(=O)O
Result: inactive

Task: Then this molecule: Cn1c(=O)c2[nH]cnc2n(C)c1=O
Result: inactive

Task: Repeat for the following molecule: CN(Cc1cnc2nc(N)nc(N)c2n1)c1ccc(C(=O)N[C@@H](CCC(=O)O)C(=O)O)cc1
Result: active

Task: What do you get for CCC1(c2ccccc2)C(=O)NCNC1=O ?
Result: inactive

Task: What would you report for COc1nc(C)nc(Cl)c1NC1=NCCN1 ?
Result: inactive

Task: Try this molecule next: CS(=O)(=O)CCNCc1ccc(-c2ccc3ncnc(Nc4ccc(OCc5cccc(F)c5)c(Cl)c4)c3c2)o1
Result: active

Task: Queued: CC(C)(C)C(=O)Oc1ccc(S(=O)(=O)Nc2ccccc2C(=O)NCC(=O)O)cc1
Result: inactive

Task: Similarly, C[C@](N)(Cc1ccc(O)c(O)c1)C(=O)O ?
Result: active

Task: O=C(c1ccc(OCCN2CCCCC2)cc1)c1c(-c2ccc(O)cc2)sc2cc(O)ccc12 ?
Result: active

Task: Now consider CC(C(=O)O)c1cccc(C(=O)c2ccccc2)c1 (stereo not given) and answer again.
Result: inactive

Task: Further, for CC(=O)OCC(CCn1cnc2cnc(N)nc21)COC(C)=O ?
Result: inactive

Task: # iterate: NC(=O)NO
Result: active

Task: And Nc1nnc(-c2cccc(Cl)c2Cl)c(N)n1 ?
Result: inactive

Task: Try this molecule too: NS(=O)(=O)c1cc2c(cc1Cl)NCNS2(=O)=O
Result: inactive

Task: // repeat for CC(C)NCC(O)c1ccc(O)c(O)c1 (stereo not given) and report
Result: active
